- Tested on: NCI-H522 lung
- protocol-text: NCI-60 one-dose screen, 48 h (100 = growth as untreated, 0 = no growth, -100 = all killed)
- assay-context: 10 µM unless noted
Compounds without any hit were thinned out: in the full panel of roughly 83,000, 20% have a hit.
For each record, write down the corresponding growth.
Numbers only, in %.

Completed entries (count: 2):
[
  {
    "compound": "CCCc1nn(C)c2c(=O)[nH]c(-c3cc(S(=O)(=O)N4CCN(C)CC4)ccc3OCC)nc12",
    "display-unit": "%",
    "observed-result": 88.9
  },
  {
    "compound": "CCCCCCC(C)(O)c1ccccc1 (configuration not stated)",
    "display-unit": "%",
    "observed-result": 100
  }
]

Could you report growth for every entry in the following list?
1. COc1ccc(-c2cc(C(=O)Nc3nc4cc(C)c(C)cc4s3)nc3cc(-c4ccccc4)nn23)cc1OC
2. COC(=O)c1ccc2c(c1)nc(-c1ccc(O)c(OC)c1)n2-c1cc(C(C)(C)C)[nH]n1
3. OCc1nnn(-c2ccccc2)c1CO
4. NC(=O)SCC(=O)Nc1ccccc1-c1ccccc1
5. CCOC(=O)C1=NN(c2ccc(Cl)cc2)C2C3N(c4ccc(Cl)cc4)N=C(C(=O)OCC)N3c3ccccc3N12 (configuration not stated)
6. Cn1cc(-c2csc(-c3c[nH]c4ncccc34)n2)c2cc(Br)cnc21
7. Cc1cc(C(C)(C)c2cc(C)c(O)c(CN(C)C)c2)cc(CN(C)C)c1O
8. CCC1=C(c2ccc(OC)cc2)C(C)Oc2cc(OC(C)=O)ccc21 (configuration not stated)

Ans.
1: 89; 2: 78.7; 3: 101; 4: 50.1; 5: 88.7; 6: -2.08; 7: 85.7; 8: 78.8

Could you report growth for every entry in the following list?
1. O=C1OCCCCCCCCCC#Cc2ccccc21
2. COc1cc2c(cc1OC)C1CCN3C(=O)CCC3N1CC2 (configuration not stated)

Ans.
[71.2, 107]
